- target_under_test: hTRPC5 F414M (Homo sapiens, UniProt Q9UL62, F414M)
- Construct: We use full-length nontagged hTRPC5 construct for FLIPR assay unless indicated otherwise; expressed in transfected cells; host or cells: AD293
- Sequence (Q9UL62 whole entry F414M): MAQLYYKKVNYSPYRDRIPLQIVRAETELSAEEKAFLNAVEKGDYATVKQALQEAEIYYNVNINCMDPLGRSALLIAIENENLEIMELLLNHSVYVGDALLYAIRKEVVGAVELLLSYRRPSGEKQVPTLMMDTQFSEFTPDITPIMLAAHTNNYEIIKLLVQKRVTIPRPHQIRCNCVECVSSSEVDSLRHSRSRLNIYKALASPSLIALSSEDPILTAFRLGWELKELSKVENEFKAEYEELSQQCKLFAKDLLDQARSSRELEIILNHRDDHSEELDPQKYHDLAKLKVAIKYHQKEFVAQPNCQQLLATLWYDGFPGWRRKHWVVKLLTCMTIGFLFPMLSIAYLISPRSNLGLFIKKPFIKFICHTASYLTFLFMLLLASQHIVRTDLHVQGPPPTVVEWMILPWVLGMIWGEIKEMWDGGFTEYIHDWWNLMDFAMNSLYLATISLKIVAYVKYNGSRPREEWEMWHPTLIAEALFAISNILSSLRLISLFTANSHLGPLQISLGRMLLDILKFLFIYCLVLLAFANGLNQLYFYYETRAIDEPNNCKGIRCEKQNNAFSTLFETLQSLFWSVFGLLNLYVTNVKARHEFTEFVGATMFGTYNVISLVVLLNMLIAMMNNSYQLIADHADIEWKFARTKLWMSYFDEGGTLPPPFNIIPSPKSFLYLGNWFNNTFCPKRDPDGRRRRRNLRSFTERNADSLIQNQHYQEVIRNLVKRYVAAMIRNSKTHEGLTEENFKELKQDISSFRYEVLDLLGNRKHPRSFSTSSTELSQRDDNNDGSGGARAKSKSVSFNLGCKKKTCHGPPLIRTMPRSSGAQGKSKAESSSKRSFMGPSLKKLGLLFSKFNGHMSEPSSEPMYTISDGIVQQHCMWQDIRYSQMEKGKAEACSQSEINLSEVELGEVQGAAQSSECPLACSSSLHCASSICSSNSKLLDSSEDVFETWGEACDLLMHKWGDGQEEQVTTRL
- method_notes: FLIPR calcium assay, hTRPC5 mutant F414M
- Type: cell-based
- recorded_conditions: CMZ; 14 mM extracellular calcium; read-out: IC50
measurement_label: IC50 (nM)
Numeric only. Scale: nM

Query block: Which IC50 value is on record for "Clc1ccc(Cn2c(CN3CCCC3)nc3ccccc32)cc1" ?
Result block: 2150

Where do these numbers come from? They come from paper PMC7987348.
